# reported ED50; entries follow
- System: Rattus norvegicus
- ASSAY_OVERVIEW: Analgesic activity for inflamed rat-paw reversal of abnormal (three legged) gait expressed as ED50 (po).
- Assay type: functional

{"COMPOUND": "Cc1ccc(C23CNCC2C3)cc1.Cl (stereo in doubt; 2b) [BICIFADINE HYDROCHLORIDE]", "CENSORING_SIGN": "=", "ED50 [mg/kg]": 18}
{"COMPOUND": "Cl.c1ccc(C23CNCC2C3)cc1 (single isomer, unassigned; (-))", "CENSORING_SIGN": ">", "ED50 [mg/kg]": 200}
{"COMPOUND": "Cl.c1ccc(C23CNCC2C3)cc1 (single isomer, unassigned; (+))", "CENSORING_SIGN": "=", "ED50 [mg/kg]": 125}
{"COMPOUND": "Cl.Clc1ccc(C23CNCC2C3)cc1 (stereo in doubt; 2a)", "CENSORING_SIGN": "=", "ED50 [mg/kg]": 31}
{"COMPOUND": "Cl.Clc1ccc(C23CNCC2C3)cc1 (stereo in doubt; 2y (-))", "CENSORING_SIGN": "=", "ED50 [mg/kg]": 150}
{"COMPOUND": "Cl.Clc1ccc(C23CNCC2C3)cc1 (stereo in doubt; 2x)", "CENSORING_SIGN": "=", "ED50 [mg/kg]": 25}
{"COMPOUND": "Cc1ccc(C23CNCC2C3)cc1.Cl (single isomer, unassigned; (-)) [BICIFADINE HYDROCHLORIDE]", "CENSORING_SIGN": ">", "ED50 [mg/kg]": 200}
{"COMPOUND": "Cc1ccc(C23CNCC2C3)cc1.Cl (stereo in doubt; 2v) [BICIFADINE HYDROCHLORIDE]", "CENSORING_SIGN": "=", "ED50 [mg/kg]": 17}
{"COMPOUND": "Cl.c1ccc(C23CNCC2C3)cc1 (stereo in doubt; 2c)", "CENSORING_SIGN": "=", "ED50 [mg/kg]": 70}
